This collection of values is drawn from patent US11286268B1.

target: recombinant eIF4E (Homo sapiens (Human), UniProt P06730)
Sequence (P06730 whole entry): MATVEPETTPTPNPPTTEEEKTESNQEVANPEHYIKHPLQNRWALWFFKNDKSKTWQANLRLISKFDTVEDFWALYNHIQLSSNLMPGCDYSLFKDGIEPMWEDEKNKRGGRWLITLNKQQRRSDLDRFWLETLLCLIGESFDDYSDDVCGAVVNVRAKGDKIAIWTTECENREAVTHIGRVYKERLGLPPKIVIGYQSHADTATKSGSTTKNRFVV
protocol_description: Fluorescence polarization competition assay for eIF4E binding potency
measurement_parameters: inhibition of eIF4E/EDA-m7GDP-ATTO-550 binding by 50%; Table 4B calculated values; read-out: IC50
Method: Compounds were screened for eIF4E binding potency using a fluorescence polarization competition assay. All binding reactions were performed in fluorescence polarization buffer (FPB) containing 20 mM Tris pH 7.5, 100 mM NaCl, 1 mM DTT, and 0.02% Tween-20. Final binding reactions contained 75 nM recombinant eIF4E (Beryllium, custom order), 20 nM EDA-m^7GDP-ATTO-550 (Jena Bioscience, NU-827-550) and varying concentrations of the inhibitory compound of interest. […]
experimental_endpoint: IC50 (nM)

# molecule, IC50 [nM]
data = [
    ("Cc1cc(-c2cc(Cl)ccc2OCCn2c(C)nc3cnc(N4CCc5ccccc54)c(C#N)c3c2=O)c2scc(C(=O)O)c2n1 [compound 982]", 20.4),
]

1: Cc1nc2cc(C(F)(F)F)c(N3CCN(C)CC3)c(C#N)c2c(=O)n1CCOc1ccc(Cl)cc1-c1cccc(C(=O)O)c1 [compound 374]
2: Cc1cnc(C)c(-c2c(C(F)(F)F)cc3nc(C)n(CCOc4ccc(Cl)cc4-c4cc(C)nc5c(C(=O)O)csc45)c(=O)c3c2C#N)n1 [compound 968]
Inquiry: # min-compare on IC50 between 1 and 2 Answer with the label corresponding to your selection.
Reply text: 2
